pIC50: recorded values
- assayed-target: HLA-A*02:01
- protocol-details: IEDB peptide-MHC binding, purified MHC/competitive/fluorescence; bounds were set here for any values at or beyond the usual limits of such assays
- measurement-parameters: source organism: Vaccinia virus
pIC50: −log10 of the molar value.

# item-sequence, assayed-target, measurement-name, val
data = [
    ("GNLSPETLV", "HLA-A*02:01", "pIC50", "≤ 3.97"),
]

Consider now this further sequence.
Query :: Which pIC50 is listed for ATNLEYKTL ?
Result :: ≤ 4.07

---

- assayed-target: HLA-B*18:01
- protocol-details: IEDB peptide-MHC binding, purified MHC/competitive/radioactivity; filed as Kd, often an IC50 or EC50 that approximates it; bounds were set here for any values at or beyond the usual limits of such assays
- measurement-parameters: source organism: Hepacivirus hominis
measurement-name: Kd

Query :: Recorded Kd for RDWAHNSL with HLA-B*18:01, please?
Result :: ≥ 88.6 µM
